- Test system: HEK-293T
- procedure-details: Multiplex assay against HEK293T
- Format: toxicity, cell-based
- test-context: human, 12 h, 1 µM, compound concentration 1 uM, replicate 1
Measured Population Apoptotic (%), listed per entry for reference.
endpoint-label: Population Apoptotic (%)

INSERT INTO results (compound, value_observed) VALUES
  ('C=CC(=O)Nc1ccc2[nH]c(=O)n(C3CCN(Cc4ccc(-c5nc6cc[nH]c(=O)c6cc5-c5ccccc5)cc4)CC3)c2c1 [Borussertib]', 18),
  ('CC1=C(C(=O)Nc2cc3cn[nH]c3cc2F)C(c2ccc(C(F)(F)F)cc2)CC(=O)N1 (configuration not stated)', 47),
  ('CC(C)OC(=O)N1CCC(Oc2ncnc3c2cnn3-c2ccc(S(C)(=O)=O)cc2F)CC1', 57),
  ('Cc1nc(N2CC[C@H](O)C2)ncc1-c1cc(C(F)(F)F)cc2[nH]ncc12', 20),
  ('CNC(=O)Nc1ccc(-c2nc(N3CC4CCC(C3)O4)c3cnn(C4CCC5(CC4)OCCO5)c3n2)cc1', 55),
  ('Cc1cccc(CN2CCN(C(c3ccccc3)c3ccc(Cl)cc3)CC2)c1.Cl.Cl (configuration not stated)', 52),
  ('CCCSc1nc(N[C@@H]2C[C@H]2c2ccc(F)c(F)c2)c2nnn([C@@H]3C[C@H](OCCO)[C@@H](O)[C@H]3O)c2n1 [TICAGRELOR]', 56),
  ('CCOC(=O)Nc1cc(-c2ccc(C)c(NS(C)(=O)=O)c2)nn2c(C)nnc12', 18),
  ('COc1cc2ncn(-c3cc(OCc4ccccc4C(F)(F)F)c(C(N)=O)s3)c2cc1OC [GW843682X]', 62),
  ('COc1ccc(-c2ccc3ncc4c(c3c2)n(-c2ccc(N3CCNCC3)c(C(F)(F)F)c2)c(=O)n4C)cn1.O=C(O)/C=C\C(=O)O [BGT-226]', 70),
  ('CNC(=O)Nc1ccc2c(c1)[C@@]1(CC2)OC(=O)N(CC(=O)N(Cc2ccc(F)cc2)[C@@H](C)C(F)(F)F)C1=O [A-486]', 25),
  ('C=CC(=O)Nc1cccc(Oc2nc(Nc3ccc(N4CCN(C)CC4)cc3OC)ncc2Cl)c1', 22),
  ('Cc1ccc(C)c(Oc2ccncc2C(=O)N2CCN(C3CC3)c3ccccc32)c1', 43),
  ('CC(C)CC(=O)Nc1[nH]nc2c1CN(C(=O)C1CCN(C)CC1)C2(C)C [PHA-793887]', 21),
  ('CCc1nn(CCCN2CCN(c3cccc(Cl)c3)CC2)c(=O)n1CCOc1ccccc1.Cl [NEFAZODONE HYDROCHLORIDE]', 47),
  ('Cc1ccccc1C(c1ccccc1C)N1C2CCC1CC(O)(c1ccccc1)C2 (configuration not stated)', 48),
  ('O=C(c1cc2c(cc1F)OC(c1ccc(F)cc1)(c1ccc(Cl)cc1Cl)O2)N1CCOCC1 (configuration not stated)', 45);

###

- System: Fibroblast
- procedure-details: Multiplex assay against human fibroblast
- Assay type: toxicity, cell-based
- test-context: 12 h, 1 µM, compound concentration 1 uM, replicate 2
endpoint-label: Population Fragmented Nuclei (%)

INSERT INTO measurements (molecule, measured_on, endpoint_label, reading_unit, value_observed) VALUES
  ('CCOC(=O)Nc1cc(-c2ccc(C)c(NS(C)(=O)=O)c2)nn2c(C)nnc12', 'Fibroblast', 'Population Fragmented Nuclei (%)', '%', 55),
  ('CNC(=O)Nc1ccc2c(c1)[C@@]1(CC2)OC(=O)N(CC(=O)N(Cc2ccc(F)cc2)[C@@H](C)C(F)(F)F)C1=O', 'Fibroblast', 'Population Fragmented Nuclei (%)', '%', 57),
  ('O=c1[nH]c2ccccc2n1C1CCN(Cc2ccc(-c3[nH]c4cc5ncnc5cc4nc3-c3ccccc3)cc2)CC1', 'Fibroblast', 'Population Fragmented Nuclei (%)', '%', 72),
  ('CC(C)c1noc(N2CCC(COc3ccc(-c4ccc(S(C)(=O)=O)cc4)nc3)CC2)n1', 'Fibroblast', 'Population Fragmented Nuclei (%)', '%', 12),
  ('COc1cc2ncn(-c3cc(OCc4ccccc4C(F)(F)F)c(C(N)=O)s3)c2cc1OC [GW843682X]', 'Fibroblast', 'Population Fragmented Nuclei (%)', '%', 9),
  ('CNC(=O)Nc1ccc(-c2nc(N3CC4CCC(C3)O4)c3cnn(C4CCC5(CC4)OCCO5)c3n2)cc1', 'Fibroblast', 'Population Fragmented Nuclei (%)', '%', 28),
  ('CN1CCN(Cc2ccc(Nc3ncc(Cl)c(Nc4ccccc4S(=O)(=O)N(C)C)n3)cc2)CC1', 'Fibroblast', 'Population Fragmented Nuclei (%)', '%', 13),
  ('Cc1c[nH]c2nccc(Oc3c(F)cc(Nc4cc(Cl)nc(N)n4)cc3F)c12', 'Fibroblast', 'Population Fragmented Nuclei (%)', '%', 12),
  ('C[C@]12CC[C@@H]3c4ccc(O)cc4CC[C@H]3[C@@H]1CC[C@@H]2O', 'Fibroblast', 'Population Fragmented Nuclei (%)', '%', 8),
  ('Cc1ccc2c(c1)c1c(n2CCc2ccc(C)nc2)CCN(C)C1 [LATREPIRDINE]', 'Fibroblast', 'Population Fragmented Nuclei (%)', '%', 27),
  ('CCc1nn(CCCN2CCN(c3cccc(Cl)c3)CC2)c(=O)n1CCOc1ccccc1.Cl [NEFAZODONE HYDROCHLORIDE]', 'Fibroblast', 'Population Fragmented Nuclei (%)', '%', 8),
  ('CC1=C(C(=O)Nc2cc3cn[nH]c3cc2F)C(c2ccc(C(F)(F)F)cc2)CC(=O)N1 (centres undefined)', 'Fibroblast', 'Population Fragmented Nuclei (%)', '%', 2),
  ('Cl.O=C(O)c1cc(-c2ccc(C3CCNCC3)cc2)c2ccc(-c3ccc(C(F)(F)F)cc3)cc2c1', 'Fibroblast', 'Population Fragmented Nuclei (%)', '%', 11),
  ('CC(C)CC(=O)Nc1[nH]nc2c1CN(C(=O)C1CCN(C)CC1)C2(C)C', 'Fibroblast', 'Population Fragmented Nuclei (%)', '%', 48);

###

- System: U2OS
- procedure-details: Multiplex assay against U2OS
- Format: toxicity, cell-based
- test-context: human, 24 h, 1 µM, compound concentration 1 uM, replicate 2
Entries whose Population Hoechst High Intensity Objects (%) is below 4% take Yes; entries at or above 4% take No.

INSERT INTO results (compound, measured_on, class_assignment) VALUES
  ('CN1CCN(Cc2ccc(Nc3ncc(Cl)c(Nc4ccccc4S(=O)(=O)N(C)C)n3)cc2)CC1 [DUBERMATINIB]', 'U2OS', 'No'),
  ('O=C(c1cc2c(cc1F)OC(c1ccc(F)cc1)(c1ccc(Cl)cc1Cl)O2)N1CCOCC1 (stereo unspecified)', 'U2OS', 'No'),
  ('CC(C)OC(=O)N1CCC(Oc2ncnc3c2cnn3-c2ccc(S(C)(=O)=O)cc2F)CC1', 'U2OS', 'Yes'),
  ('O=c1[nH]c2ccccc2n1C1CCN(Cc2ccc(-c3[nH]c4cc5ncnc5cc4nc3-c3ccccc3)cc2)CC1', 'U2OS', 'Yes'),
  ('COc1ccccc1CN[C@H]1C2CCN(CC2)[C@H]1C(c1ccccc1)c1ccccc1 [CP-96345]', 'U2OS', 'Yes'),
  ('CNC(=O)Nc1ccc(-c2nc(N3CC4CCC(C3)O4)c3cnn(C4CCC5(CC4)OCCO5)c3n2)cc1', 'U2OS', 'No'),
  ('CCc1nn(CCCN2CCN(c3cccc(Cl)c3)CC2)c(=O)n1CCOc1ccccc1.Cl [NEFAZODONE HYDROCHLORIDE]', 'U2OS', 'Yes'),
  ('C=CC(=O)Nc1ccc2[nH]c(=O)n(C3CCN(Cc4ccc(-c5nc6cc[nH]c(=O)c6cc5-c5ccccc5)cc4)CC3)c2c1 [Borussertib]', 'U2OS', 'No'),
  ('Cc1ccc(C)c(Oc2ccncc2C(=O)N2CCN(C3CC3)c3ccccc32)c1', 'U2OS', 'No'),
  ('C=CC(=O)Nc1cccc(Sc2nc(Nc3ccc(N4CCN(C)CC4)cc3)ncc2Cl)c1', 'U2OS', 'No'),
  ('CCCSc1nc(N[C@@H]2C[C@H]2c2ccc(F)c(F)c2)c2nnn([C@@H]3C[C@H](OCCO)[C@@H](O)[C@H]3O)c2n1 [TICAGRELOR]', 'U2OS', 'Yes'),
  ('CCOC(=O)Nc1cc(-c2ccc(C)c(NS(C)(=O)=O)c2)nn2c(C)nnc12', 'U2OS', 'No'),
  ('COC(=O)C1=C(C)NC(C)=C(C(=O)OCCCN2CCC(c3ccccc3)(c3ccccc3)CC2)[C@H]1c1cccc([N+](=O)[O-])c1 [NIGULDIPINE]', 'U2OS', 'No'),
  ('CNC(=O)Nc1ccc2c(c1)[C@@]1(CC2)OC(=O)N(CC(=O)N(Cc2ccc(F)cc2)[C@@H](C)C(F)(F)F)C1=O [A-486]', 'U2OS', 'No'),
  ('Cc1ccc2c(c1)c1c(n2CCc2ccc(C)nc2)CCN(C)C1 [LATREPIRDINE]', 'U2OS', 'No');

Numbers sourced from ChEMBL document CHEMBL4689842.
